- Tested on: Mus musculus
- PROTOCOL_NOTES: Anticonvulsant activity in Swiss mouse assessed as protection against maximal electroshock-induced seizures at 300 mg/kg, ip pretreated for 2 hrs
- Format: functional, organism-based
Active and inactive are the calls of the source. No cut-off for these calls is given here.
PROPERTY: Activity

> print(dat)
                                   compound  property  measured.value
1  CC1CC(=O)N(C(C)C(=O)N2CCN(c3ccccc3Cl)CC2)C1=O (stereo not given)  Activity        inactive
2  Cc1cccc(N2CCN(C(=O)C(C)N3C(=O)CC(C)(C)C3=O)CC2)c1 (stereo not given)  Activity        inactive
3  CC(C(=O)N1CCN(c2cccc(Cl)c2Cl)CC1)N1C(=O)CC(C)(C)C1=O (stereo not given)  Activity        inactive
4  CC(C(=O)N1CCN(c2ccccc2Cl)CC1)N1C(=O)CC(C)(C)C1=O (stereo not given)  Activity        inactive
5  CC1CC(=O)N(C(C)C(=O)N2CCN(c3ccccc3F)CC2)C1=O (stereo not given)  Activity        inactive

The measured values listed here are drawn from ChEMBL document CHEMBL3745637.
